assay-remarks: Antimicrobial activity against Finegoldia magna ATCC 29328 by agar dilution method in presence of 5% laked sheep blood
Assay type: functional
So I've got a bunch of compounds here, and I need their MIC values.
The reply should contain only the number, in µg/mL.

I would be grateful if you could share the reported MIC for C[C@@H](O)[C@H]1C(=O)N2C(C(=O)O)=C(S[C@H]3C[C@@H](C(=O)N4CC[C@H](NC(=O)CNC(=N)N)C4)N(C)C3)[C@H](C)[C@H]12 .
0.125

Give the measured MIC of C[C@@H](O)[C@H]1C(=O)N2C(C(=O)O)=C(S[C@@H]3CN[C@H](CNS(N)(=O)=O)C3)[C@H](C)[C@H]12 .
0.25

What MIC value was documented for this compound, Cc1ncc([N+](=O)[O-])n1CCO ?
1

Any idea what MIC was measured for CCC[C@@H]1C[C@@H](C(=O)N[C@@H]([C@H]2O[C@H](SC)[C@H](O)[C@@H](O)[C@H]2O)[C@H](C)Cl)N(C)C1 ?
2

I'd like to know its MIC. The compound in question is CC(=N)N1CC[C@H](SC2=C(C(=O)O)N3C(=O)[C@H]([C@@H](C)O)[C@H]3C2)C1
0.25

Please report the recorded MIC for C[C@@H](O)[C@H]1C(=O)N2C(C(=O)O)=C(S[C@@H]3CN[C@H](C(=O)N(C)C)C3)[C@H](C)[C@H]12 .
0.125
